Source: PubChem BioAssay AID1159580

assay notes: chemical genetic growth profiling, strain panel (AID 1159580);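 also: tested at 20 µM; growth read once vehicle control cultures reached saturation at 30 °C; lower values mean less growth of the strain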
experimental setup: S. cerevisiae deletion strains, growth OD, locus YNL175C, strain NOP13
Hit rate of the full screen: of about 5,500 compounds, about 2,000 (36%) were called active. Inconclusive results (about 18%) are left out. Rule as the data show it: active = normalized growth mostly below about 0.91 (no sharp cut-off); inconclusive = no clear call, values can overlap the other calls; inactive = mostly above about 0.92. The list shows a part of the results.
// classify into True for active, False for inactive

Some solved entries appear below for comparison.
{"columns": ["molecule", "label class"],
 "data": [
  ["CC(N)(C(=O)O)c1ccc(C(=O)O)cc1 (configuration not stated)", "False"],
  ["CC[N+](C)(C)c1cccc(O)c1", "False"],
  ["CCN(CC)CCOCCOC(=O)C1(c2ccccc2)CCCC1", "False"],
  ["O=C1c2ccccc2-c2n[nH]c3cccc1c23", "True"],
  ["CCN(CC)CCOC(=O)C1(C2CCCCC2)CCCCC1", "False"],
  ["Nc1ncn(C2OC(CO)C(O)C2O)c(=O)n1 (configuration not stated)", "False"],
  ["NNCc1cccc(O)c1", "False"],
  ["C/C(=C\\c1ccc(C(=O)O)cc1)c1ccc2c(c1)C(C)(C)CCC2(C)C", "False"],
  ["NCC(O)(CS(=O)(=O)O)c1ccc(Cl)cc1 (configuration not stated)", "False"],
  ["Cc1o[nH]c(=O)c1CC(N)C(=O)O (configuration not stated)", "False"]
]}

-- ask Record lookup: outcome of this test for `O=C1NC(O)=NC1(c1ccccc1)c1ccccc1` ?
-- reply False

-- ask Record lookup: outcome of this test for Nc1ncnc2c1ncn2C1CCCO1 (configuration not stated) ?
-- reply False
